Recorded pIC50 for the following compounds
# target or system: human SGLT2 (Homo sapiens, UniProt P31639, I433V)
# Sequence (P31639 whole entry I433V): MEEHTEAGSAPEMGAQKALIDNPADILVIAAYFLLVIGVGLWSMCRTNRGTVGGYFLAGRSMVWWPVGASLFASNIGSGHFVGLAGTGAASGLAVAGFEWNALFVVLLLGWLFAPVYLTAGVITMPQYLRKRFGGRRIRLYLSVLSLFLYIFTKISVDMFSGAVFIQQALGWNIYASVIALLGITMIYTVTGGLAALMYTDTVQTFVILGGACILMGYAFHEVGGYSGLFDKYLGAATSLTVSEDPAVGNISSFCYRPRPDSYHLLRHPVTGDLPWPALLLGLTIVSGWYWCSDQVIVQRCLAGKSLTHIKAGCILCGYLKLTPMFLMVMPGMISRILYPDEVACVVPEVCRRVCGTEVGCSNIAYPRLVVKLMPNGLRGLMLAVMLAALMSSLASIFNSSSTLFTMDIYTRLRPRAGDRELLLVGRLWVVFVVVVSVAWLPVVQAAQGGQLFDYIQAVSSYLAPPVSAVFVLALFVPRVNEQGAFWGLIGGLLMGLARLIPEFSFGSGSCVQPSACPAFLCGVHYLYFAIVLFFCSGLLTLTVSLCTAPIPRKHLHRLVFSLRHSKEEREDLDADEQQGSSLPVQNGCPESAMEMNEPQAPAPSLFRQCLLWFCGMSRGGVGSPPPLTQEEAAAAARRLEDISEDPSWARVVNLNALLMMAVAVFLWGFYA
# experiment description: Assay for inhibitory effect on human SGLT2 activity (uptake of methyl-α-D-glucopyranoside in COS-7 cells expressing transiently human SGLT2)
# conditions used: inhibition of methyl-α-D-(U-14C)glucopyranoside uptake, COS-7 cells expressing transiently human SGLT2, 37° C., 2 hours
Recall that pIC50 is obtained by taking minus log10 of the concentration measured in molar.

Sample answers from the record:
COc1ccc(Cc2ccccc2O[C@@H]2O[C@H](CO)[C@@H](O)[C@H](O)[C@H]2O)cc1 [Reference Example 11]; 6.46
CCOc1ccc(Cc2ccccc2O[C@@H]2O[C@H](CO)[C@@H](O)[C@H](O)[C@H]2O)cc1 [Reference Example 15]; 6.48
CC(C)Oc1ccc(Cc2ccccc2O[C@@H]2O[C@H](CO)[C@@H](O)[C@H](O)[C@H]2O)cc1 [Reference Example 16]; 6.43
CCSc1ccc(Cc2ccccc2O[C@@H]2O[C@H](CO)[C@@H](O)[C@H](O)[C@H]2O)cc1 [Reference Example 17]; 6.96
CCc1ccc(Cc2ccccc2O[C@@H]2O[C@H](CO)[C@@H](O)[C@H](O)[C@H]2O)cc1 [Reference Example 13]; 6.85

// switching to the query compound
Request the reported pIC50 associated with CC(C)Cc1ccc(Cc2ccccc2O[C@@H]2O[C@H](CO)[C@@H](O)[C@H](O)[C@H]2O)cc1 [Reference Example 14]
6.30
